target: human IL-21R expressed on cells (human, UniProt Q9HBE5 20-538); assay: cell-based or functional assay
Sequence (Q9HBE5 20-538 limits assumed): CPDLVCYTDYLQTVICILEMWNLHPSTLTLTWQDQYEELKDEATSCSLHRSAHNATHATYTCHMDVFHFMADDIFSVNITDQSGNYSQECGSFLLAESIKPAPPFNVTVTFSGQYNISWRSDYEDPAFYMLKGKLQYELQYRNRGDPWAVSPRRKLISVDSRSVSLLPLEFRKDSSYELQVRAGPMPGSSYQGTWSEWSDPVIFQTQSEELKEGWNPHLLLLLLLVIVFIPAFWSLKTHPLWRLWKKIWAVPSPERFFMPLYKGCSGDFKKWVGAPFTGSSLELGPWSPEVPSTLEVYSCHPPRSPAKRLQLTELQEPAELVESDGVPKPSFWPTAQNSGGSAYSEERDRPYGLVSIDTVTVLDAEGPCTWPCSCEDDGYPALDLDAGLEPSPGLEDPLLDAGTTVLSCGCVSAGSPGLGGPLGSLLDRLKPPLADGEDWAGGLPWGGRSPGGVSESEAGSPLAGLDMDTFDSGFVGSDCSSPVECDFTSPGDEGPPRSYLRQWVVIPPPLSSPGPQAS
Lab note: compare IC50, Human IL-21R-BaF3 Neutralization Assay with 3 nM, writing Met if less and Not met if equal or more.

Use these answered entries as a reference point.
scFv H4 (scFv) scFv: QVQLQESGPGLVKTSETLSLTCAVSGYSISSGYYWGWIRQPPGKGLEWIGSISHTGNTYYNPPLKSRVTISVDTSKNQFSLKLSSVTAADTAVYYCARWLGFGRPEYWGKGTLVTVSSGGGGSGGGGSGGGGSALSSELTQDPPVSVALGQTVTLTCQGDSLRTYYASWYQQKSGQAPILLLYGKHKRPSGIPDRFSGSTSGDTASLTITGAQAEDEADYYCNSRDSSGNPHVLFGGGTQLTVL: Not met
scFv L23 (scFv) scFv: QVQLQESGPGLVKTSETLSLTCAVSGYSISSGYYWGWIRQPPGKGLEWIGSISHTGNTYYNPPLKSRVTISVDTSKNQFSLKLSSVTAADTAVYYCARGGGISRPEYWGKGTLVTVSSGGGGSGGGGSGGGGSALSSELTQDPPVSVALGQTVTLTCQGDSLRTYYASWYQQKSGQAPILLLYGKHKRPSGIPDRFSGSTSGDTASLTITGAQAEDEADYYCSARSVRGNPHVLFGGGTQLTVL: Met
scFv L14 (scFv) scFv: QVQLQESGPGLVKTSETLSLTCAVSGYSISSGYYWGWIRQPPGKGLEWIGSISHTGNTYYNPPLKSRVTISVDTSKNQFSLKLSSVTAADTAVYYCARGGGISRPEYWGKGTLVTVSSGGGGSGGGGSGGGGSALSSELTQDPPVSVALGQTVTLTCQGDSLRTYYASWYQQKSGQAPILLLYGKHKRPSGIPDRFSGSTSGDTASLTITGAQAEDEADYYCMARSRKGNPHVLFGGGTQLTVL: Not met
scFv L12 (scFv) scFv: QVQLQESGPGLVKTSETLSLTCAVSGYSISSGYYWGWIRQPPGKGLEWIGSISHTGNTYYNPPLKSRVTISVDTSKNQFSLKLSSVTAADTAVYYCARGGGISRPEYWGKGTLVTVSSGGGGSGGGGSGGGGSALSSELTQDPPVSVALGQTVTLTCQGDSLRTYYASWYQQKSGQAPILLLYGKHKRPSGIPDRFSGSTSGDTASLTITGAQAEDEADYYCVARGTRGNPHVLFGGGTQLTVL: Met
scFv L17 (scFv) scFv: QVQLQESGPGLVKTSETLSLTCAVSGYSISSGYYWGWIRQPPGKGLEWIGSISHTGNTYYNPPLKSRVTISVDTSKNQFSLKLSSVTAADTAVYYCARGGGISRPEYWGKGTLVTVSSGGGGSGGGGSGGGGSALSSELTQDPPVSVALGQTVTLTCQGDSLRTYYASWYQQKSGQAPILLLYGKHKRPSGIPDRFSGSTSGDTASLTITGAQAEDEADYYCSTRSRKGNPHVLFGGGTQLTVL: Met

Here's the next entry for you.
A record lists scFv L11 (scFv) scFv: QVQLQESGPGLVKTSETLSLTCAVSGYSISSGYYWGWIRQPPGKGLEWIGSISHTGNTYYNPPLKSRVTISVDTSKNQFSLKLSSVTAADTAVYYCARGGGISRPEYWGKGTLVTVSSGGGGSGGGGSGGGGSALSSELTQDPPVSVALGQTVTLTCQGDSLRTYYASWYQQKSGQAPILLLYGKHKRPSGIPDRFSGSTSGDTASLTITGAQAEDEADYYCSSRSRHGNPHVLFGGGTQLTVL . Is its IC50, Human IL-21R-BaF3 Neutralization Assay below 3 nM?
Not met

Just for reference, patent US20120276102A1 is where these values come from.
